- TESTED_ON: BRM (Homo sapiens, UniProt P51531)
- Construct: made in house; host or cells: High Five insect cells
- Sequence (P51531 whole entry): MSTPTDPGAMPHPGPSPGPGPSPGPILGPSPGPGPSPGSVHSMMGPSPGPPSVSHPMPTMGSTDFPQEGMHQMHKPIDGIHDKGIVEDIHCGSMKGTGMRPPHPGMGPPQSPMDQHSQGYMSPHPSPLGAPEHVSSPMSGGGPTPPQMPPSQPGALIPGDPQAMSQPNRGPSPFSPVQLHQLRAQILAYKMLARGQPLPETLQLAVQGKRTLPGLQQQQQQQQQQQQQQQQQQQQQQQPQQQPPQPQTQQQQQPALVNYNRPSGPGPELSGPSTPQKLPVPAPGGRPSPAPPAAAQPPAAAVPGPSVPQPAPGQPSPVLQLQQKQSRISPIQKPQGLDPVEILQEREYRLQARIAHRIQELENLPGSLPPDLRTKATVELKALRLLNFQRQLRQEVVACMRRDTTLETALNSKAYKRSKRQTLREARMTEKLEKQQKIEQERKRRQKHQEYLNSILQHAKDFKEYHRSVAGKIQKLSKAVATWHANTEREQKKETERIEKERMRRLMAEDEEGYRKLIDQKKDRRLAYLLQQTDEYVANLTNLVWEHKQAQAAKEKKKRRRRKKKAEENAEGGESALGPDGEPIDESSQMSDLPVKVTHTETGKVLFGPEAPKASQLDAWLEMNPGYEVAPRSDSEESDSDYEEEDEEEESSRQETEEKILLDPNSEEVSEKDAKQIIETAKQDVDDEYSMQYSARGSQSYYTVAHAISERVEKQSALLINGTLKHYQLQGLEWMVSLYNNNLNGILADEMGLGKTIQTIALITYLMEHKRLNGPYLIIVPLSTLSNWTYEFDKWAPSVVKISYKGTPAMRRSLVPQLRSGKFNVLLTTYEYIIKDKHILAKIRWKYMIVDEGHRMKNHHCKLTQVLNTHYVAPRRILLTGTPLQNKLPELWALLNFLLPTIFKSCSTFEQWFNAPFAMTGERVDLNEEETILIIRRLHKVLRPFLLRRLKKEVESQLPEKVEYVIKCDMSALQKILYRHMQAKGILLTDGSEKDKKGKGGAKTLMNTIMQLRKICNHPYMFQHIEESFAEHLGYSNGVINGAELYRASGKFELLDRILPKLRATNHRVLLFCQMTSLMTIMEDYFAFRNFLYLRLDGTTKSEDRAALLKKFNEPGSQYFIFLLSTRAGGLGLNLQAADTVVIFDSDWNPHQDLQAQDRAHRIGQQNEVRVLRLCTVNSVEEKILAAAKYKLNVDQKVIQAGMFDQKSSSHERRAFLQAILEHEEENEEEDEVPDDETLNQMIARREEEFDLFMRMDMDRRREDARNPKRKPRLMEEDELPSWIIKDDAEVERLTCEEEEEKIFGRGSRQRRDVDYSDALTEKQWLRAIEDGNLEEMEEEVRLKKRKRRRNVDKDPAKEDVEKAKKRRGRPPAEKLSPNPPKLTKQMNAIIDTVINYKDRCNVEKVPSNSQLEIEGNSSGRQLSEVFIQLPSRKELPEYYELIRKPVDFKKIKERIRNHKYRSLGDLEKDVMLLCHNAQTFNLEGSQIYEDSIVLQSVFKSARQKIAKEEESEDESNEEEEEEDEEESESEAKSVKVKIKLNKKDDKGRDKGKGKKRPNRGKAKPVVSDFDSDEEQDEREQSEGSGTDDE
- TEST_DESCRIPTION: ATPase catalytic activity of BRM, ADP-Glo in vitro biochemical assay
- TEST_PARAMETERS: selectivity ratio BRG1 IC50 / BRM IC50
REPORTED_METRIC: Ratio* (BRG1 IC50 (μM) divided by BRM IC50 (μM))

1) CNc1cccc(-c2ccc3cnc(CNC(=O)c4ccc5c(c4)S(=O)(=O)CCOC5)cc3n2)n1 [Compound 274] :: 8.46

For reference, reported Ratio* (BRG1 IC50 (μM) divided by BRM IC50 (μM)) for O=C(NCc1cc2nc(-c3cccc([C@H]4CC4(F)F)n3)ccc2cn1)c1ccc2c(c1)S(=O)(=O)CCOC2 [Compound 267] stands at 30.99

For reference, reported Ratio* (BRG1 IC50 (μM) divided by BRM IC50 (μM)) for CC(F)(F)c1cccc(-c2ccc3cnc(CNC(=O)c4ccc5c(c4)S(=O)(=O)CCOC5)cc3n2)n1 [Compound 281] stands at 19.92

For reference, reported Ratio* (BRG1 IC50 (μM) divided by BRM IC50 (μM)) for O=C(NCc1cc2nc(-c3cccc(C4(F)CCC4)n3)ccc2cn1)c1ccc2c(c1)S(=O)(=O)CCOC2 [Compound 154] stands at 14.94

For reference, reported Ratio* (BRG1 IC50 (μM) divided by BRM IC50 (μM)) for Cc1cc(-c2cccc(-c3ccc4cnc(CNC(=O)c5ccc6c(c5)S(=O)(=O)CCOC6)cc4n3)n2)cc(C)n1 [Compound 169] stands at 3.33

For reference, reported Ratio* (BRG1 IC50 (μM) divided by BRM IC50 (μM)) for C[C@@H]1CN(c2cccc(-c3ccc4cnc(CNC(=O)c5ccc6c(c5)S(=O)(=O)[C@H](C)COC6)cc4n3)n2)C[C@H](C)O1 [Compound 159] stands at 11.15

For reference, reported Ratio* (BRG1 IC50 (μM) divided by BRM IC50 (μM)) for COCCCN(C)c1cccc(-c2ccc3cnc(CNC(=O)c4ccc5c(c4)S(=O)(=O)CCOC5)cc3n2)n1 [Compound 125] stands at 12.26

For reference, reported Ratio* (BRG1 IC50 (μM) divided by BRM IC50 (μM)) for C[C@@H]1CN(c2cccc(-c3ccc4cnc(CNC(=O)c5cc(F)c6c(c5)S(=O)(=O)CCCO6)cc4n3)n2)C[C@H](C)O1 [Compound 37] stands at 9.89

###

- TESTED_ON: BRM (Homo sapiens, UniProt P51531)
- Construct: made in house; host or cells: High Five insect cells
- TEST_DESCRIPTION: ATPase catalytic activity of BRM, ADP-Glo in vitro biochemical assay
- TEST_PARAMETERS: ADP-Glo ATPase assay, 30 nM BRM, 400 μM ATP
Listed below: IC50 values for each entry.
Numbers only; they are read as nM.

1) Cc1cc(-c2ccc3cnc(CNC(=O)c4ccc5c(c4)S(=O)(=O)CCOC5)cc3n2)nc(N2C[C@@H](C)O[C@@H](C)C2)c1 :: 14.3

For reference, reported IC50 for C[C@@H]1CN(c2cccc(-c3cnc4cnc(CNC(=O)c5ccc(C(F)F)c(S(C)(=O)=O)c5)cc4n3)n2)C[C@H](C)O1 stands at 13.6

For reference, reported IC50 for COc1nn(C(F)F)cc1-c1ccc2cnc(CNC(=O)c3ccc4c(c3)S(=O)(=O)CCOC4)cc2n1 stands at 92.3

For reference, reported IC50 for C[C@@H]1CN(c2cncc(-c3ccc4cnc(CNC(=O)c5ccc(Cl)c(S(C)(=O)=O)c5)cc4n3)n2)C[C@H](C)O1 stands at 44.5

For reference, reported IC50 for COCCc1ccc(C(=O)NCc2cc3nc(-c4cncc(C5CC5)n4)ccc3cn2)cc1S(C)(=O)=O stands at 407

For reference, reported IC50 for C[C@@H]1CN(c2cccc(-c3ccc4cnc(CNC(=O)c5ccc6c(c5)S(=O)(=O)CCC(F)C6)cc4n3)n2)C[C@H](C)O1 (stereo partly drawn) stands at 5.5
